- subjectOfTest: ErbB2 (Homo sapiens, UniProt P04626)
- Sequence (P04626 23-1255, species assumed): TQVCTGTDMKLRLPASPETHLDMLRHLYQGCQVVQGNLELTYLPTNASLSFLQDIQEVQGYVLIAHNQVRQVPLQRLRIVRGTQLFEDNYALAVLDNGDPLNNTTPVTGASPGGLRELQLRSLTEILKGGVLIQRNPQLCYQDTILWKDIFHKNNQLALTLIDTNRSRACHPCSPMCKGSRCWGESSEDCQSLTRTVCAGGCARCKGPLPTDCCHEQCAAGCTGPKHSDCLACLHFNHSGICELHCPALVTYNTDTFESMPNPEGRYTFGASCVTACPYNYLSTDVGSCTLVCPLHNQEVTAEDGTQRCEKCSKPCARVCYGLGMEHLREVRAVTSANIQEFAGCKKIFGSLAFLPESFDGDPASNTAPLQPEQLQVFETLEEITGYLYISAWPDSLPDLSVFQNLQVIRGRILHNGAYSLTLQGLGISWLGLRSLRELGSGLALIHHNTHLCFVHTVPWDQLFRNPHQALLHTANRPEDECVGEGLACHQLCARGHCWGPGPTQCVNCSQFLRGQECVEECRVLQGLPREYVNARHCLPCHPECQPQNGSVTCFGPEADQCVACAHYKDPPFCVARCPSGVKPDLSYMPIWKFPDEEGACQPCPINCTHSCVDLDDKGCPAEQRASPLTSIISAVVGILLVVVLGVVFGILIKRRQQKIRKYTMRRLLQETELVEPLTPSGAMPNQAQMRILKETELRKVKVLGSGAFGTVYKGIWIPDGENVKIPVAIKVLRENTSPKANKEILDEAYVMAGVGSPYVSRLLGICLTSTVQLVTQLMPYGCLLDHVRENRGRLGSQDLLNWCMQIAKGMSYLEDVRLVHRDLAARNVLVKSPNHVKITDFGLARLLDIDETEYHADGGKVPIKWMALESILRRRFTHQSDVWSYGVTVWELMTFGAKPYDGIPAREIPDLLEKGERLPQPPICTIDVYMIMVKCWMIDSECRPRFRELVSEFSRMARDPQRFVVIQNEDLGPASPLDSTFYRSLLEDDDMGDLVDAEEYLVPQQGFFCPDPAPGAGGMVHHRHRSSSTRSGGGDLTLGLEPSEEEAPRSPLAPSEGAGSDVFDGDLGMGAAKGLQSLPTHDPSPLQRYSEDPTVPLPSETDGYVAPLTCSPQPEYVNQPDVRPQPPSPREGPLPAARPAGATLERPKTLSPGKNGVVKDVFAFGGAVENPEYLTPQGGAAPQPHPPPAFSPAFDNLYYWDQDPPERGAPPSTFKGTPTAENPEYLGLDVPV
pIC50: −log10 of the molar value.
reportedMetric: pIC50

| molecule | measuredValue |
| --- | --- |
| Cc1cccc(Nc2ncnc(Nc3cc(-c4ccccc4)n[nH]3)n2)c1 [Compound 1012] | 4.99 to 5.16 |
| COc1cc(Nc2ncnc(-c3cccnc3Nc3ccccc3)n2)cc(OC)c1OC [Compound 1092] | < 4.98 |
| COCCNc1ncnc(Nc2cc(-c3ccc(C(=O)OC)cc3)n[nH]2)n1 [Compound 816] | 5.02 to 5.19 |
| c1ccc(CNc2ncccc2-c2ncnc(Nc3ccc(N4CCOCC4)cc3)n2)cc1 [Compound 1105] | < 4.99 |

* * *

- subjectOfTest: AKT (Homo sapiens, UniProt Q9Y243)
- Construct: Kinases are expressed as either kinase domains or full length constructs; made in house
- Sequence (Q9Y243 whole entry, the tested form may be a part): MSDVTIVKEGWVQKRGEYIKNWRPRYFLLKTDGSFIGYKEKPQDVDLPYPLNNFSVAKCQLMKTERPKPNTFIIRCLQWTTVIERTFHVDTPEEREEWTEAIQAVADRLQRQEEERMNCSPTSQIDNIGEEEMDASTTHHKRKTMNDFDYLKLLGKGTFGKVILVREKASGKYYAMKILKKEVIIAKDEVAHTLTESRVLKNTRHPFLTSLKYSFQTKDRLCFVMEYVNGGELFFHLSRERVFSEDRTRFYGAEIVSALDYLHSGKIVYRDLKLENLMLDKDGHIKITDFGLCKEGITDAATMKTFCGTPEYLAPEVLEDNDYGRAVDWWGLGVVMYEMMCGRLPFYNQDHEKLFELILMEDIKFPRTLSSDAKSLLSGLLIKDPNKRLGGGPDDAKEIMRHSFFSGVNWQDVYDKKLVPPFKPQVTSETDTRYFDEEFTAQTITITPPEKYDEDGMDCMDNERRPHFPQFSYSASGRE
- experiment: Kinase inhibition assay (33P transfer), AKT
- Format: biochemical
- details: Table 2, kinase inhibition class; read-out: AKT3-1
The entries below are paired with their reported IC50.

| sampleSmiles | IC50 |
| --- | --- |
| Nc1nc2ccccc2n1-c1ncnc(Nc2cccc(CC(=O)O)c2)n1 | > 12.5 µM |
| COc1cc(Nc2ncnc(Nc3cc(-c4ccco4)n[nH]3)n2)cc(OC)c1OC | 8.55 to 11 µM |
| CN(c1cccc(Cl)c1)c1ncnc(Nc2ccc(C(F)(F)F)cc2)n1 | > 11.8 µM |
| COc1cc(Nc2ncnc(Nc3ccc(S(=O)(=O)NC(C)=O)cc3)n2)cc(OC)c1OC | > 9.48 µM |
| c1csc(-c2ncnc(Nc3ccc(N4CCOCC4)cc3)n2)c1 | 10.3 to 13.3 µM |
| CN(c1cccc(Cl)c1)c1ncnc(Cl)n1 | > 17.6 µM |
| COc1cc(Nc2ncnc(-n3c(Nc4ccc(N(C)C)cc4)nc4ccccc43)n2)cc(OC)c1OC | > 8.78 µM |
| CN(c1cccc(Cl)c1)c1ncnc(Nc2ccc(F)c(C(F)(F)F)c2)n1 | > 11.3 µM |
| COc1ccc(Nc2ncnc(-c3ccccc3)n2)cc1 | > 16.2 µM |
| COc1cc(Nc2ncnc(-n3cc(CCO)c4ccccc43)n2)cc(OC)c1OC | > 10.7 µM |
| O=c1[nH]c2ccccc2n1-c1ncnc(Nc2ccc(O)cc2)n1 | > 14 µM |
| COc1cc(Nc2ncnc(-n3ncc4ccccc43)n2)cc(OC)c1OC | > 11.9 µM |
| Nc1nc2ccccc2n1-c1ncnc(N2C(=O)c3ccccc3C2=O)n1 | > 12.6 µM |
| COc1cc(Nc2ncnc(Nc3cc(F)cc(C(F)(F)F)c3)n2)cc(OC)c1OC | > 10.2 µM |
| COc1cc(Nc2ncnc(-n3c(NCc4ccccn4)nc4ccccc43)n2)cc(OC)c1OC | > 9.29 µM |
| COc1cc(Nc2ncnc(-n3ncc(-c4ccccc4)c3N)n2)cc(OC)c1OC | > 10.7 µM |
| c1ccc(CNc2nc3ccccc3n2-c2ncnc(Nc3cccc(Cc4nnn[nH]4)c3)n2)cc1 | 0.841 to 5.05 µM |
| FC(F)C(F)(F)Oc1cccc(Nc2ncnc(-c3ccnc(Cl)c3)n2)c1 | > 11.3 µM |

* * *

- subjectOfTest: c-Met (Homo sapiens)
- Construct: Kinases are expressed as either kinase domains or full length constructs; made in house
- Sequence (P08581 25-1390): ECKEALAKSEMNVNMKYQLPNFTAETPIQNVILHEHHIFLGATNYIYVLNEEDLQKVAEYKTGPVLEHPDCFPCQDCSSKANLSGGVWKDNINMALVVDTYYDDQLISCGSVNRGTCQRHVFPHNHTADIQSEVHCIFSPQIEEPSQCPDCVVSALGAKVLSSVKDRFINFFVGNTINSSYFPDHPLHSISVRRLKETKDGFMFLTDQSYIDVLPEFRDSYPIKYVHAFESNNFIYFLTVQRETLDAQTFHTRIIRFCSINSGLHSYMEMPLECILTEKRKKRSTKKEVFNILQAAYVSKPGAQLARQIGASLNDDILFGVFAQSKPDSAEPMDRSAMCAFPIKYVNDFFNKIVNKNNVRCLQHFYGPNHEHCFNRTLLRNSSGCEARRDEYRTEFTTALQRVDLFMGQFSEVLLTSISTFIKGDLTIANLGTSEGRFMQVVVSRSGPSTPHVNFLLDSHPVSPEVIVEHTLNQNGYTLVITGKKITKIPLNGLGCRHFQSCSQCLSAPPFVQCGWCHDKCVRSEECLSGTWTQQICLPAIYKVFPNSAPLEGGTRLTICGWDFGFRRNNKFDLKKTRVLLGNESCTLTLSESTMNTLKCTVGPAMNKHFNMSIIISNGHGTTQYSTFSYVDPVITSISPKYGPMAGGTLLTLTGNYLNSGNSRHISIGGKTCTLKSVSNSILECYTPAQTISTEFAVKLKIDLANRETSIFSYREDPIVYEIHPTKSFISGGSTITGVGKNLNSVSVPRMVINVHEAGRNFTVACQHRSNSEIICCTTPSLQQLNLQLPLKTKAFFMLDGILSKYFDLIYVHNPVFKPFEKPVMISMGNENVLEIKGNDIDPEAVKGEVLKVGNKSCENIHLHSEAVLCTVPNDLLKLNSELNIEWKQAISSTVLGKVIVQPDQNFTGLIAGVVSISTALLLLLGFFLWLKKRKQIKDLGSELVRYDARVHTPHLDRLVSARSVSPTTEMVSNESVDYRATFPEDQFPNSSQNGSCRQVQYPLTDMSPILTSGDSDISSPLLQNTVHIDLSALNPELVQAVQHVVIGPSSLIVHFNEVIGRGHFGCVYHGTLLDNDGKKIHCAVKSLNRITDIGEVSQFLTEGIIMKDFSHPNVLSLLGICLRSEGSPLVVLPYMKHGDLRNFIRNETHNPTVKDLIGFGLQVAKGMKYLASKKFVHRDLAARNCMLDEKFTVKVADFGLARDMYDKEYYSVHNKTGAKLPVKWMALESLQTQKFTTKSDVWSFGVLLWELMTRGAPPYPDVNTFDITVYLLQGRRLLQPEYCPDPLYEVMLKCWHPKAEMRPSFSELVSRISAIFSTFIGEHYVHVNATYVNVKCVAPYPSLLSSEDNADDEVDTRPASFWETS
- experiment: Kinase inhibition assay (33P transfer), c-Met
- Assay type: biochemical
- details: Table 2, kinase inhibition class; read-out: Met-1

| compound | IC50 |
| --- | --- |
| COc1cc(Nc2ncnc(Nc3cc(-c4ccco4)n[nH]3)n2)cc(OC)c1 [Compound 365] | < 1.05 µM |
| COc1cc(Nc2ncnc(-c3ccccc3)n2)cc(OC)c1OC [Compound 970] | > 13.3 µM |
| Clc1cccc(Nc2ncnc(Nc3cc(-c4ccccc4)n[nH]3)n2)c1 [Compound 1009] | > 12.4 µM |
| COCCOc1cc(Nc2ncnc(Nc3ccc(C)c(O)c3)n2)ccc1OC [Compound 127] | > 11.3 µM |
| COc1ccc(Nc2ncnc(Nc3cccc(-c4ccnc(C)n4)c3)n2)cc1OC [Compound 789] | > 10.8 µM |
